- tgt: Voltage-dependent T-type calcium channel subunit alpha-1H (Homo sapiens)
- assay_notes: Cav3.2 calcium influx blockers – cell-based, Fluo-4 calcium fluorescence, FDSS, MLSMR library, primary screen (AID 449739)
- experimental_setup: Cav3.2-expressing cells, at 10 µM
In all, about 100,000 compounds went through this assay and about 4,200 (4.2%) were called active.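 Rule for the calls: active = single-dose well whose peak fluorescence ratio is a statistical outlier from its plate by either plate-standardised score or position-corrected B-score; inactive = the rest.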 The entries come from a sample that favours actives as a whole.
Respond only with the outcome that fits, drawn from Yes for active, No for inactive

• CCn1c(=O)cc(OCC(=O)NCCCN2CCN(c3cccc(Cl)c3)CC2)c2ccccc21 = No

Please state the recorded outcome for this compound: CCN(CC)CCN1C(=O)C(=O)/C(=C(/O)c2cnn(-c3ccccc3)c2C)C1c1cccs1 (centres undefined)
No

Please state the recorded outcome for this compound: Cc1ccc(C(=O)N/N=C/c2sc(=O)n(Cc3cccc(C(=O)O)c3)c2Cl)cc1
No

Please state the recorded outcome for this compound: C#CCOCCOCCOCCNc1nc(N2CCN(C(=O)[C@H](CCC(=O)O)n3cc(C(N)CO)nn3)CC2)nc(N2CCN(C(=O)[C@H](Cc3ccc(O)cc3)n3cc(C(N)[C@H](C)CC)nn3)CC2)n1 (some centres undefined)
No

Please state the recorded outcome for this compound: Cc1cc(NC(=O)CCC(=O)N(CC(=O)NCC2CCCO2)c2ccccc2C)no1 (centres undefined)
No

Please state the recorded outcome for this compound: CC(C)CNC(=O)CC(c1ccccc1)c1c(O)ccc2ccccc12 (centres undefined)
Yes

Please state the recorded outcome for this compound: O=C(CCCn1c(=O)[nH]c2cc(Cl)ccc2c1=O)NCCN1CCN(c2ccccc2)CC1
No

Please state the recorded outcome for this compound: COCCn1c(-c2ccc(OC)c(OC)c2)nc2ccccc21
No

Please state the recorded outcome for this compound: Cc1ccc(C)c(N2CCN(C(=O)CCCCn3c(=O)[nH]c4ccccc4c3=O)CC2)c1
Yes

---

- tgt: Voltage-dependent T-type calcium channel subunit alpha-1H (Homo sapiens) (UniProt O95180)
- Sequence (O95180 whole entry, looked up): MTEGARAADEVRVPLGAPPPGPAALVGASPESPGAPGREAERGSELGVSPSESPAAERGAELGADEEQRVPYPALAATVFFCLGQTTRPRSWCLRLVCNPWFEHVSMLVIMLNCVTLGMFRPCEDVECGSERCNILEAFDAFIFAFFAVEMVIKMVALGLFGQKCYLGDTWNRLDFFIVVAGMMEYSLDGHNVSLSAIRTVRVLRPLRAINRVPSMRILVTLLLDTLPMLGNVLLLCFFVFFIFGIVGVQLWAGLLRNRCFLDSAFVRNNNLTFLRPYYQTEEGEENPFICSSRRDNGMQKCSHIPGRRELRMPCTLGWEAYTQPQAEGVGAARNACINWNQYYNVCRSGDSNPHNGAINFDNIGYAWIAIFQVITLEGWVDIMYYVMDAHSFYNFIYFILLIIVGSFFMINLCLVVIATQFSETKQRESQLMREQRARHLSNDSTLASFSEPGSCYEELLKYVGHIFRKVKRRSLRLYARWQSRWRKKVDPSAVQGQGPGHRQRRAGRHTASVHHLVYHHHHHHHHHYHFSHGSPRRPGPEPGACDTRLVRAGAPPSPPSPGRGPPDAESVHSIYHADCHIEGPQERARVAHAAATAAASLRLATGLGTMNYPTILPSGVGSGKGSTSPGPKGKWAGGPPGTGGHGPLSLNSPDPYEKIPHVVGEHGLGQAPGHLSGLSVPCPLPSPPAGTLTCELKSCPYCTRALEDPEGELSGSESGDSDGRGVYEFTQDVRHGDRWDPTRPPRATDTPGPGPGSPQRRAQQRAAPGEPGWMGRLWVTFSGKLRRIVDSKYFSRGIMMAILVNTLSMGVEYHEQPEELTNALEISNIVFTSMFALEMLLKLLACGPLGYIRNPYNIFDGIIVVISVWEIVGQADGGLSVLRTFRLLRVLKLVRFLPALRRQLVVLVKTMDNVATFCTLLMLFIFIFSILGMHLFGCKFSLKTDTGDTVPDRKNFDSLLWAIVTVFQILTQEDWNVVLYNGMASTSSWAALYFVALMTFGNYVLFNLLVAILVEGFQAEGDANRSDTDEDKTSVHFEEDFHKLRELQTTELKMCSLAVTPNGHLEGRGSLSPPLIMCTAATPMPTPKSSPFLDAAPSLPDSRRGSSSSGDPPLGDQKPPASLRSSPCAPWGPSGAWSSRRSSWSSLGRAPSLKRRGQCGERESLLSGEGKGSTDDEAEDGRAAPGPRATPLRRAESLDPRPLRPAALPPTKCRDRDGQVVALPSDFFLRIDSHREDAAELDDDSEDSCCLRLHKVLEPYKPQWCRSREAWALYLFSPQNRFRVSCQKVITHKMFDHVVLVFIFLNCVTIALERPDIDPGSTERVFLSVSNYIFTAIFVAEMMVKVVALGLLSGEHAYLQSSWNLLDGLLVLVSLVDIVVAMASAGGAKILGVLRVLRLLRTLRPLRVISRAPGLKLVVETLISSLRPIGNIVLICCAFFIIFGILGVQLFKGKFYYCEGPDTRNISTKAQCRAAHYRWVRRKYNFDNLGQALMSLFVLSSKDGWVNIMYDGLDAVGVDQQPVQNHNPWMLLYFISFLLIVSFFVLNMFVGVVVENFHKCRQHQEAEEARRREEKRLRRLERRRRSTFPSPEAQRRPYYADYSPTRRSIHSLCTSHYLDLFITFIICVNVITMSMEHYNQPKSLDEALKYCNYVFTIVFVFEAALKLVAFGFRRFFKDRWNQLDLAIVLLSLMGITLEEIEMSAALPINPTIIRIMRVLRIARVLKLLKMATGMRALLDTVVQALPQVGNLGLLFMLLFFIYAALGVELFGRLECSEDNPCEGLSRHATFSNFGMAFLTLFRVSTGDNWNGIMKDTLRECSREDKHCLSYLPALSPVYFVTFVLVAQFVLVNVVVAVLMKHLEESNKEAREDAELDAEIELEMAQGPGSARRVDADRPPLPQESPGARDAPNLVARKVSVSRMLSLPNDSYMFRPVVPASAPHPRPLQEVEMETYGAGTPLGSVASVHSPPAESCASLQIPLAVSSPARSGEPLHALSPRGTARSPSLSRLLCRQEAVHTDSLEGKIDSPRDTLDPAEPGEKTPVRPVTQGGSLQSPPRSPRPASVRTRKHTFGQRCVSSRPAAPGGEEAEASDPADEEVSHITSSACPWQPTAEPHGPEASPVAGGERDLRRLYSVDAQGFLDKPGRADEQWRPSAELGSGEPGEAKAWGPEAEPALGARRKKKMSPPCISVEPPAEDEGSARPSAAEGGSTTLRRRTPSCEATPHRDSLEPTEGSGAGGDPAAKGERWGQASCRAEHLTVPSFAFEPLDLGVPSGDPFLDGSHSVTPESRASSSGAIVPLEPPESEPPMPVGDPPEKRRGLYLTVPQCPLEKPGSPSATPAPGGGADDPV
- assay_notes: Cav3.2 calcium influx blockers – cell-based, Fluo-4 calcium fluorescence, FDSS, MLSMR library, primary screen (AID 449739)
- experimental_setup: Cav3.2-expressing cells, at 10 µM, active compounds read low
Among all 100,000 compounds or so, about 4,200 (4.2%) were called active. This is one part of a sample in which actives are shown more often than they occur.
Rule: measured B-score below -0.9 gets Satisfied; anything equal to or greater than -0.9 gets Not satisfied.

Examples from the recorded data:
• O=C1NC[C@@H](Cc2ccc(O)cc2)N(CCc2cccc(F)c2)C1=O = Satisfied
• CCCn1c(SCC(=O)Nc2cccc(C(=O)OCC)c2)nnc1-c1ccoc1C = Satisfied
• Cc1c(C(=O)OC(C)C)sc(NC(=O)c2cccnc2)c1C#N = Satisfied

Take the molecule CCO[C@@H]1OC(C(=O)NC2CC2)=C[C@H](C)[C@H]1CCCO and say whether its B-score is less than -0.9.
Not satisfied

Take the molecule CCOC(=O)c1sc(NC(=O)CSc2nc3c(c(=O)n2-c2ccccc2)SCC3)c(C(=O)OCC)c1C and say whether its B-score is less than -0.9.
Not satisfied

Take the molecule CS(=O)(=O)N1CCN(c2ccc(C(=O)NC3C4CC5CC(C4)CC3C5)cc2[N+](=O)[O-])CC1 (stereo unspecified) and say whether its B-score is less than -0.9.
Not satisfied

Take the molecule NCCCC[C@@H]1NC(=O)[C@H](CCC(=O)O)NC(=O)c2cc([N+](=O)[O-])cc(I)c2NCC[C@@H](C(N)=O)NC1=O and say whether its B-score is less than -0.9.
Not satisfied

Take the molecule COc1ccccc1CSc1nc2ccccc2[nH]1 and say whether its B-score is less than -0.9.
Satisfied

Take the molecule COc1cc(/C=C/CO)cc(OC)c1O[C@@H]1O[C@H](CO)[C@@H](O)[C@H](O)[C@H]1O and say whether its B-score is less than -0.9.
Not satisfied

Take the molecule COC(=O)c1c(-c2cccs2)csc1NC(=O)CSc1ncnc2sc(C)c(C)c12 and say whether its B-score is less than -0.9.
Satisfied

Take the molecule C=CCC1(C(=O)N(C)Cc2ccccc2)CCN(C(=O)OC(C)(C)C)CC1 and say whether its B-score is less than -0.9.
Not satisfied

---

Record form. Attribute: B-score. Fill in for each entry.
- tgt: Voltage-dependent T-type calcium channel subunit alpha-1H (Homo sapiens) (UniProt O95180)
- assay_notes: Cav3.2 calcium influx blockers – cell-based, Fluo-4 calcium fluorescence, FDSS, MLSMR library, primary screen (AID 449739)
- experimental_setup: Cav3.2-expressing cells, at 10 µM, active compounds read low
Screen size: about 100,000 compounds; about 4,200 (4.2%) were called active. Shown is part of a subset that was picked to be rich in actives.
Give bare numbers.

Example compounds with recorded B-score:
- O=C1N[C@@H](Cc2ccccc2)C(=O)N2[C@@H]3N(S(=O)(=O)c4ccc(F)cc4)c4ccccc4[C@]3(Br)C[C@@H]12: 0.27
- Cc1nnc(NC(=O)Nc2ccc(Cl)c(Cl)c2)s1: -0.569
- N/C(=N\OC(=O)Nc1ccc(Cl)c(Cl)c1)c1ncc(C(F)(F)F)cc1Cl: -0.00792

Required: B-score, one value per compound below.
1. Cc1ccc(-c2nn(-c3ccccc3)cc2/C=N/NC(=O)c2ccc3c(c2)OCO3)cc1
2. CCS(=O)(=O)n1nc(-c2ccccc2)nc1SCc1ccccc1
3. COc1ccc(NC(=O)CSc2nc(N)c(-c3ccccc3)c(=O)[nH]2)cc1

1: -3.75; 2: -3.19; 3: 0.0212

---

- tgt: Voltage-dependent T-type calcium channel subunit alpha-1H (Homo sapiens)
- assay_notes: Cav3.2 calcium influx blockers – cell-based, Fluo-4 calcium fluorescence, FDSS, MLSMR library, primary screen (AID 449739)
- experimental_setup: Cav3.2-expressing cells, at 10 µM, active compounds read low
The whole screen tested about 100,000 compounds, of which about 4,200 (4.2%) were called active. The sample as a whole holds a higher share of actives than the screen did.
Rule: measured B-score below 0.2 gets Satisfied; anything equal to or greater than 0.2 gets Not satisfied.

Examples from the recorded data:
* c1ccc(-c2ccnc3nc(-n4cccc4)nn23)cc1 | Not satisfied
* C/C=C(/C)C(=O)Nc1cccc(C2=NOC3(C2)C[C@@H](C(N)=O)N(C(=O)C2(C)CC2)C3)c1 (stereo partly drawn) | Satisfied
* C=CCn1c(SCc2cc(C(=O)OC)c(C)o2)nnc1-c1ccncc1 | Not satisfied
* Cc1[nH]c2ccccc2c1C(=O)COC(=O)C(C)C | Satisfied
* C=CCn1c(SCn2nnc3ccccc3c2=O)nnc1-c1ccc(Cl)cc1 | Satisfied

Take the compound O=C(CCCOc1ccccc1)NCc1ccco1 and say whether its B-score is less than 0.2.
Satisfied

Take the compound COc1cc(NC(=O)c2cncc(-c3ccc(C#N)cc3)c2)cc(C(=O)Nc2cccc(C(F)(F)F)c2)c1 and say whether its B-score is less than 0.2.
Not satisfied

Take the compound CC1=NN(C(=O)Cc2ccc(C)cc2)C(O)(c2cccnc2)C1 (stereo not drawn) and say whether its B-score is less than 0.2.
Not satisfied

Take the compound CCCC(=O)Nc1nc2ccc(NC(=O)c3cccnc3)cc2s1 and say whether its B-score is less than 0.2.
Satisfied

Take the compound Cc1cnc(NC(=O)CSc2nnc(-c3ccc(Cl)cc3Cl)n2N)s1 and say whether its B-score is less than 0.2.
Satisfied

---

Record form. Attribute: B-score. Fill in for each entry.
- tgt: Voltage-dependent T-type calcium channel subunit alpha-1H (Homo sapiens)
- assay_notes: Cav3.2 calcium influx blockers – cell-based, Fluo-4 calcium fluorescence, FDSS, MLSMR library, primary screen (AID 449739)
- experimental_setup: Cav3.2-expressing cells, at 10 µM, active compounds read low
Hit rate of the full screen: of about 100,000 compounds, about 4,200 (4.2%) were called active. For the sample, actives were picked, then their nearest neighbours and some compounds at random.
Answers are plain numbers.

Example compounds with recorded B-score:
* CC(=O)c1nn(-c2cccc(Br)c2)cc1C(=O)c1cccc2ccccc12 | -4.57
* COc1ccc(Nc2nc(Cl)nc(NCc3ccco3)n2)cc1 | -0.534
* COCCNC(=O)Cn1cc(C(=O)c2cccs2)c2ccccc21 | 0.167
* Cc1ccccc1-c1nc(CS(=O)(=O)CC(=O)N2CCc3ccccc3C2)c(C)o1 | -4.63
* CCC(=O)Nc1cccc(C2=NOC3(C2)C[C@@H](C(N)=O)N(C(=O)c2cc([N+](=O)[O-])cc([N+](=O)[O-])c2C)C3)c1 (stereo partly specified) | 0.296
* CC1Cc2ccccc2N1C(=O)CSc1nc2ccccc2o1 (stereo unspecified) | -4.15

Required: B-score, one value per compound below.
1. CC(C)(C)NS(=O)(=O)c1ccc(NC(=O)NC2CCCCC2)cc1
2. O=S(=O)(c1cnccc1N1CCN(/N=C/c2ccc(Br)cc2)CC1)N1CCCCC1
3. O=C(Cn1cc(C(=O)c2cccs2)c2ccccc21)NCc1cccs1
4. CCOC(=O)c1ccc(NC(=O)c2nc[nH]c2C(=O)N[C@@H](CCCCNC(=O)OC(C)(C)C)C(=O)OC(C)(C)C)cc1
5. O=C(c1ccccc1Oc1ccccc1)N1CCN(c2ccc(F)cc2)CC1
6. CC(C)N(C(=O)COC(=O)c1ccccc1C(=O)N1CCN(c2ccc(F)cc2)CC1)C(C)C
7. Cn1cc(CCC(=O)NCc2ccc3c(c2)OCO3)c2ccccc21

1. -0.833
2. -0.791
3. -4.4
4. -0.307
5. -4.99
6. 0.00273
7. -2.19

Required: B-score, one value per compound below.
1. COc1cccc(/C=N/NC(=O)c2cccc([N+](=O)[O-])c2)c1OS(=O)(=O)c1ccc(C)cc1
2. CC(=O)Nc1ccccc1C(=O)C(=O)Nc1ccc(F)cc1

-6.01
0.288
